// provenance: patent US20040029823A1

system: JNK2 mRNA; assay: Northern assay of JNK2 mRNA expression in A549 cells; assay type: cell-based, human; conditions: JNK2 mRNA, chemically modified oligonucleotides, dose 400 nM
Strand notation (5' to 3'): a small letter for the sugar, then the base; units joined by * are phosphorothioate-linked, units joined directly phosphodiester-linked; [ ] holds rarer units or linkages, { } end groups; capitals alone tell only the bases. e = 2'-O-(2-methoxyethyl) (MOE); [5mC] = 5-methylcytosine; d = 2'-deoxy (DNA)
Entries and their Normalized % Control values follow.
EXPERIMENTAL_ENDPOINT: Normalized % Control (%)

1. 15355 (antisense eG*eT*e[5mC]*e[5mC]*eG*eG*eG*e[5mC]*e[5mC]*eA*eG*dG*dC*dC*dA*dA*dA*dG*dT*dC) [compound 15355] ... 29.1
2. 15352 (antisense eG*eT*e[5mC]*e[5mC]*eG*eG*eG*e[5mC]*e[5mC]*eA*eG*eG*e[5mC]*e[5mC]*eA*eA*eA*eG*eT*e[5mC]) [compound 15352] ... 158.4
3. 15354 (antisense eGeTe[5mC]e[5mC]eG*dG*dG*dC*dC*dA*dG*dG*dC*dC*eAeAeAeGeTe[5mC]) [compound 15354] ... 17.1
4. 12560 (antisense GTCCGGGCCAGGCCAAAGTC; DNA, all phosphorothioate, methylation of C not given here) [compound 12560] ... 31.4
5. 15353 (antisense eG*eT*e[5mC]*e[5mC]*eG*dG*dG*dC*dC*dA*dG*dG*dC*dC*eA*eA*eA*eG*eT*e[5mC]) [compound 15353] ... 21.2
6. 15357 (antisense GTCCGGGCCAGGCCAAAGTC; wingmer: 5' deoxy phosphorothioate wing, 3' MOE phosphodiester wing, wing lengths not given here) [compound 15357] ... 13.7
7. 15356 (antisense dG*dT*dC*dC*dG*dG*dG*dC*dC*eA*eG*eG*e[5mC]*e[5mC]*eA*eA*eA*eG*eT*e[5mC]) [compound 15356] ... 11.0
8. 15358 (antisense eGeTe[5mC]e[5mC]eGeGeGe[5mC]e[5mC]eAeG*dG*dC*dC*dA*dA*dA*dG*dT*e[5mC]) [compound 15358] ... 29.4

---

# Lookup of reported Protein % Control keyed by entry
tested on: JNK1 protein; test: Western assay of JNK1 protein levels in A549 cells; assay type: cell-based, human; conditions: t = 72 h, 300 nM for 20 hours then 200 nM for 4 hours
e = 2'-O-(2-methoxyethyl) (MOE); [5mC] = 5-methylcytosine; d = 2'-deoxy (DNA)
EXPERIMENTAL_ENDPOINT: Protein % Control

1) 15347 (antisense CTCTCTGTAGGCCCGCTTGG; sugars from the 5' end e5 d9 e6, [5mC] at 1, 3, 5, 16, linkages o4 s10 o5 (s phosphorothioate, o phosphodiester), methylation of C not given here) [compound 15347] ... 28.4%
2) 15346 (antisense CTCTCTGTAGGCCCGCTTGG; sugars from the 5' end e5 d9 e6, [5mC] at 1, 3, 5, 16, all phosphorothioate, methylation of C not given here) [compound 15346] ... 25.7%
3) 15350 (antisense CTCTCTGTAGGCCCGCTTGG; sugars from the 5' end d9 e11, [5mC] at 12, 13, 14, 16, linkages s9 o10 (s phosphorothioate, o phosphodiester), methylation of C not given here) [compound 15350] ... 58.4%
4) 12539 (antisense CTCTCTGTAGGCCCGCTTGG; DNA, all phosphorothioate, methylation of C not given here) [compound 12539] ... 29.2%
5) 15351 (antisense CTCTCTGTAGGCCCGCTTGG; sugars from the 5' end e11 d9, [5mC] at 1, 3, 5, linkages o10 s9 (s phosphorothioate, o phosphodiester), methylation of C not given here) [compound 15351] ... 37.0%

---

tested on: JNK1 mRNA; experiment: Northern assay of JNK1 mRNA expression in A549 cells; type: cell-based, human; details: JNK1 mRNA, t = 72 h; 300 nM for 20 hours then 200 nM for 4 hours
e = 2'-O-(2-methoxyethyl) (MOE); [5mC] = 5-methylcytosine; d = 2'-deoxy (DNA)
Here the recorded RNA % Inhibition is given for each entry.
EXPERIMENTAL_ENDPOINT: RNA % Inhibition (%)

1. 15349 (antisense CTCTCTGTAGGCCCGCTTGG; sugars from the 5' end d9 e11, [5mC] at 12, 13, 14, 16, all phosphorothioate, methylation of C not given here) [compound 15349] ... 48.0
2. 15348 (antisense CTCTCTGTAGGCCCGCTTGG; sugars from the 5' end e11 d9, [5mC] at 1, 3, 5, all phosphorothioate, methylation of C not given here) [compound 15348] ... 72.0
3. 15351 (antisense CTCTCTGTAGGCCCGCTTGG; sugars from the 5' end e11 d9, [5mC] at 1, 3, 5, linkages o10 s9 (s phosphorothioate, o phosphodiester), methylation of C not given here) [compound 15351] ... 53.9
4. 15347 (antisense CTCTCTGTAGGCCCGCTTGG; sugars from the 5' end e5 d9 e6, [5mC] at 1, 3, 5, 16, linkages o4 s10 o5 (s phosphorothioate, o phosphodiester), methylation of C not given here) [compound 15347] ... 81.8
5. 15350 (antisense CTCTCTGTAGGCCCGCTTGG; sugars from the 5' end d9 e11, [5mC] at 12, 13, 14, 16, linkages s9 o10 (s phosphorothioate, o phosphodiester), methylation of C not given here) [compound 15350] ... 45.6

---

test system: JNK1 mRNA; test: Northern assay of JNK1 mRNA expression in A549 cells; assay type: cell-based, human; details: JNK1 mRNA, A549 cells, 400 nM oligonucleotide, relative to LIPOFECTIN-only control
EXPERIMENTAL_ENDPOINT: % EXPRESSION (%)

1) 12464 (antisense CGGCTTAGCTTCTTGATTGC; DNA, all phosphorothioate, methylation of C not given here) [compound 12464] ... 18
2) 11981 (antisense CTGTGCTAAAGGAGAGGGCT; DNA, all phosphorothioate, methylation of C not given here) [compound 11981] ... 62
3) 12554 (antisense GGCTGCCCCCGTATAACTCC; DNA, all phosphorothioate, methylation of C not given here) [compound 12554] ... 11
4) 11982 (antisense ATGATGGATGCTGAGAGCCA; DNA, all phosphorothioate, methylation of C not given here) [compound 11982] ... 13
5) 11989 (antisense CAAAAATAAGACCACTGAAT; DNA, all phosphorothioate, methylation of C not given here) [compound 11989] ... 60

---

The following substances are shown together with reported % INHIBITION values.
test system: JNK3 mRNA; experiment: Northern assay of JNK3 mRNA levels in SH-SY5Y cells; type: cell-based, human; settings: 200 nM oligonucleotide
e = 2'-O-(2-methoxyethyl) (MOE); d = 2'-deoxy (DNA)
EXPERIMENTAL_ENDPOINT: % INHIBITION (%)

1) 16709 (antisense ATCATCTCCTGAAGAACGCT; sugars from the 5' end e6 d8 e6, all phosphorothioate, methylation of C not given here) [compound 16709] ... 34
2) 16698 (antisense AATCACTTGACATAAGTTGG; sugars from the 5' end e6 d8 e6, all phosphorothioate, methylation of C not given here) [compound 16698] ... 37
3) 16691 (antisense CTCATCTATAGGAAACGGGT; sugars from the 5' end e6 d8 e6, all phosphorothioate, methylation of C not given here) [compound 16691] ... 34
4) 16708 (antisense CGCTGGGTTTCGCAGGCAGG; sugars from the 5' end e6 d8 e6, all phosphorothioate, methylation of C not given here) [compound 16708] ... 32
5) 16699 (antisense TAAATCCCTGTGAATAATTC; sugars from the 5' end e6 d8 e6, all phosphorothioate, methylation of C not given here) [compound 16699] ... 39
6) 16707 (antisense GCGGCTAGTCACCTGCAACA; sugars from the 5' end e6 d8 e6, all phosphorothioate, methylation of C not given here) [compound 16707] ... 27
7) 16690 (antisense TTCAACAGTTTCTTGCATAA; sugars from the 5' end e6 d8 e6, all phosphorothioate, methylation of C not given here) [compound 16690] ... 40

---

test system: JNK1 protein; test: Western assay of JNK1 protein levels in A549 cells; type: cell-based, human; conditions: t = 48 h, 300 nM for 20 hours then 200 nM for 4 hours
e = 2'-O-(2-methoxyethyl) (MOE); [5mC] = 5-methylcytosine; d = 2'-deoxy (DNA)
EXPERIMENTAL_ENDPOINT: Protein % Inhibition (%)

1) 15348 (antisense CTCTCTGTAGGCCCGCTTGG; sugars from the 5' end e11 d9, [5mC] at 1, 3, 5, all phosphorothioate, methylation of C not given here) [compound 15348] ... 41.7
2) 15349 (antisense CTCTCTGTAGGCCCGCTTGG; sugars from the 5' end d9 e11, [5mC] at 12, 13, 14, 16, all phosphorothioate, methylation of C not given here) [compound 15349] ... 30.5
3) 15350 (antisense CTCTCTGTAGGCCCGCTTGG; sugars from the 5' end d9 e11, [5mC] at 12, 13, 14, 16, linkages s9 o10 (s phosphorothioate, o phosphodiester), methylation of C not given here) [compound 15350] ... 28.3
